# GI50 per entry
system: XF498; assay: NCI tumour cell line growth inhibition, 48 h
Active and inactive are the calls of the source. No stated cut-off is given here; in the data, active = GI50 up to about 1.1 µM and inactive = higher.

Consider the worked cases shown below.
O=C(O)C1=C(C(=O)Nc2ccc(NC(=O)C3=C(C(=O)O)C4C=CC3C4)cc2)C2C=CC1C2
> 100 µM (inactive)
CC[S+](C)c1ccc(-c2c3nc(c(-c4ccc([S+](C)CC)cc4)c4ccc([nH]4)c(-c4ccc([S+](C)CC)cc4)c4nc(c(-c5ccc([S+](C)CC)cc5)c5ccc2[nH]5)C=C4)C=C3)cc1.[O-][Cl+3]([O-])([O-])[O-].[O-][Cl+3]([O-])([O-])[O-].[O-][Cl+3]([O-])([O-])[O-].[O-][Cl+3]([O-])([O-])[O-] (centres undefined)
0.881 µM (active)
Cn1ccnc1Cn1cc(-c2cccc(-c3cn[nH]c3)c2)cn1
> 100 µM (inactive)
S=c1cc(S)c2c(=S)sc3nc4ccccn4c(=S)c3c2s1
> 100 µM (inactive)
N#C/C(=C/c1cccnc1)C(=O)c1ccccc1
> 100 µM (inactive)

// GI50 lookup, compound = N#Cc1c2c(c(N=[N+]=[N-])n3c1nc1ccccc13)CCCC2 , result: 1.75 µM (inactive)

For reference, reported GI50 for CC1=C(C(=O)CC(=O)C(=O)NC2C3CC4CC(C3)CC2C4)Sc2ccccc2N1 (centres undefined) stands at > 100 µM (inactive)

The compound listed as Cc1cc(=O)cc2sc3cc(Cl)ccc3nc1-2 shows GI50 equal to 4.28 µM (inactive)

* * *

Listed compounds paired with reported GI50
system: K562; experiment: NCI tumour cell line growth inhibition, 48 h
Calls of active or inactive are those of the source. Cut-off read from the data, not from the text of the source: active = GI50 up to about 1.1 µM and inactive = higher.

Worked cases, answers included:
O=C1/C(=C\c2cccs2)Oc2ccccc21
74.5 µM (inactive)
COc1cc2c(c3c1c(=O)c1ccccc1n3C)C=CC(C)(C)O2
52.1 µM (inactive)
CC1(C)COC2=C(C1)C(=O)c1ccccc1C2=O
0.102 µM (active)

GI50 recorded for this compound, COc1ccc(C2C3=C(COC3=O)OC(C)(C)Oc3cc4c(cc32)OCO4)cc1 (configuration not stated) , is 5.13 µM (inactive)

Entry under test: CC(=O)O[C@H]1C(=O)[C@@]2(C)[C@H]([C@H](OC(=O)c3ccc(F)cc3)[C@]3(O)C[C@H](OC(=O)[C@H](O)[C@@H](NC(=O)c4ccccc4)c4ccccc4)C(C)=C1C3(C)C)[C@]1(OC(C)=O)CO[C@@H]1C[C@@H]2O . Its GI50 was 0.00859 µM (active)

// field: GI50; key: COc1cc([C@H]2c3cc4c(cc3[C@H](NCc3ccc([N+](=O)[O-])cc3)C3COC(=O)[C@H]32)OCO4)cc(OC)c1O (some centres not stated) ; value = 3.18 µM (inactive)

* * *

system: Malme-3M; assay: NCI tumour cell line growth inhibition, 48 h
Active and inactive are the calls of the source. Cut-off read from the data, not from the text of the source: active = GI50 up to about 1.1 µM and inactive = higher.
GI50 by entry:

Use the examples below as a reference point.
CCOC(=O)Nc1ccc2c(c1)c(CCCCCCc1nc3ccccc3c3ccc(NC(=O)OCC)cc13)nc1ccccc12
> 10 µM (inactive)
COC1=CC(=O)c2c(cc3c(c2O)-c2c(OC)cc4cc5c(c(O)c4c2OC(=O)CC(C)(O)C3)C(=O)CC(C)(O)C5)C1=O (stereo not drawn)
1.82 µM (inactive)

Let's switch to this molecule now.
So, CC(C)(C)c1cc2c(OC/C=C/c3ccccc3)c(c1)Cc1cc(C(C#N)(OC/C=C/c3ccccc3)OC/C=C/c3ccccc3)cc(c1OC/C=C\c1ccccc1)Cc1cc(C(C)(C)C)cc(c1OC/C=C/c1ccccc1)Cc1cc(C(C#N)(OC/C=C\c3ccccc3)OC/C=C/c3ccccc3)cc(c1OC/C=C\c1ccccc1)C2 (stereo not drawn) ? Its GI50 was 83.4 µM (inactive)

* * *

Listed next: entries and their corresponding GI50.
test system: EKVX; assay: NCI tumour cell line growth inhibition, 48 h
The source made the active and inactive calls. Cut-off read from the data, not from the text of the source: active = GI50 up to about 1.1 µM and inactive = higher.

CC(C)=CCC(O)[C@](C)(O)[C@H]1[C@H](O)C[C@@]2(C)[C@@H]3CCc4cc(O)c(OC5OC(CO)C(O)C(O)C5O)cc4C3(C)C(=O)C[C@]12C (stereo partly drawn)
> 100 µM (inactive)
CC(=O)O[C@H]1C(=O)[C@@]2(C)[C@H]([C@H](OC(=O)c3ccc(F)cc3)[C@]3(O)C[C@H](OC(=O)[C@H](O)[C@@H](NC(=O)c4ccccc4)c4ccccc4)C(C)=C1C3(C)C)[C@]1(OC(C)=O)CO[C@@H]1C[C@@H]2O
2 µM (inactive)
N#Cc1ccc(C2Oc3ccc(Cl)cc3C=C2[N+](=O)[O-])cc1 (stereo not drawn)
1.75 µM (inactive)
Cc1cc2c(c3nocc13)C(=O)c1ccccc1C2=O
> 100 µM (inactive)
CCOP(=O)(OCC)C(c1ccccc1)N(C(=O)NC(F)(F)F)c1ccc(C)cc1 (stereo not drawn)
> 100 µM (inactive)
COc1ccc(C2C3=C(COC3=O)OC(C)(C)Oc3cc4c(cc32)OCO4)cc1 (stereo not drawn)
35.5 µM (inactive)
N#CCN1c2ccccc2CCC1Cl (stereo not drawn)
> 10 µM (inactive)

Then this compound:
Record CCCCCCCCCc1nn2c(Cc3ccccc3)nnc2s1 / EKVX, GI50 recorded as 15.5 µM (inactive)

* * *

Measured GI50, listed per entry.
tested on: HCT-15

Use the examples below as a reference point.
COc1cc(Nc2nc3ccccc3nc2C(C)C)cc(OC)c1OC
90.4 µM
Cc1ccc([S+]([O-])C(C)C(Cl)c2ccccc2)cc1 (stereo not given)
> 100 µM

Item: CC12CCC(C1)C(C)(C)C2OC(=O)c1ccccc1C(=O)O (stereo not given) | System: HCT-15 | GI50: > 100 µM

The observed GI50 for N=C(N)NS(=O)(=O)c1ccc(Nc2c3ccccc3nc3c(C(=O)Nc4ccc(S(N)(=O)=O)cc4)cccc23)cc1 when tested with HCT-15 stands at > 100 µM

Form field GI50 for item Oc1ccc(-c2c3ccccc3c(-c3ccc(OCCBr)cc3)c3ccccc23)cc1 on HCT-15: 30.7 µM

Considering COC(=O)NN=C(c1ccc(Cl)cc1)c1ccc(Cl)cc1 , its GI50 with HCT-15 was recorded as > 100 µM

O=C(Cc1nccc2c1[nH]c1ccccc12)OC1C#CCSCC#C/C=C\1 (stereo not given) on HCT-15 gives GI50 = > 100 µM

Let me check: S=c1cc(S)c2c(=S)sc3nc4ccccn4c(=S)c3c2s1 , system HCT-15, measured GI50 is 49.8 µM

The compound COc1ccc(-c2nnc(CCCCCCCCc3nnc(-c4ccc(OC)cc4)o3)o2)cc1 , tested on HCT-15, showed GI50 of > 100 µM

Summary: O=C(CSc1nnc(-c2ccc(/N=C\c3ccc(Cl)cc3)cc2)o1)Nc1ccc(Cl)cc1 , HCT-15, GI50 = > 100 µM

* * *

test system: RXF 393; assay: NCI tumour cell line growth inhibition, 48 h
Calls of active or inactive are those of the source. Cut-off read from the data, not from the text of the source: active = GI50 up to about 1.1 µM and inactive = higher.
API: response.call in yes (1) for active, no (0) for inactive

For orientation, consider the following solved cases.
CN(C)CCC(/C=C/c1ccccc1)=N\Nc1ccc(Cl)cc1
no (0)
CCOC(=O)C1C(c2ccc([N+](=O)[O-])cc2)NC(c2ccc([N+](=O)[O-])cc2)C(C(=O)OC)S1(=O)=O (centres undefined)
no (0)
c1cc(-c2ccc(-c3nc4ccc(C5=NCCN5)cc4s3)s2)ccc1C1=NCCN1
yes (1)
COc1cc2c(c3c1c(=O)c1ccccc1n3C)C=CC(C)(C)O2
no (0)
CC(=O)OCC1OC(n2c3c(c(-c4ccco4)c(C#N)c2=S)CCCC3)C(OC(C)=O)C(OC(C)=O)C1OC(C)=O (centres undefined)
no (0)

What is the recorded call for this compound in the test? CCCCNC(=O)N/C=C1\C(=O)Oc2ccccc2C1=O
no (0)

Hi team, can someone confirm the assay call for N=C(N)NS(=O)(=O)c1ccc(Nc2c3ccccc3nc3c(C(=O)Nc4ccc(S(N)(=O)=O)cc4)cccc23)cc1 ?
no (0)

For O=CC(O)C(O)C(O)C(O)COC(=O)NCCCCC(=O)C(F)(F)C(F)(F)C(F)(F)C(F)(F)C(F)(F)C(F)(F)C(F)(F)F (centres undefined) , which call appears in the assay record?
no (0)

Which outcome did this test record for the compound CCc1cc(O)c(Cl)c(C)c1Cl ?
no (0)

What was the test verdict on ClCCCCOC1CCCCO1 (centres undefined) ?
no (0)

State the result this test recorded for C[C@]12Cc3cnn(-c4ccc(F)cc4)c3NC1CC[C@@H]1C2CC[C@@]2(C)C1CC[C@@H]2O (some centres undefined) .
no (0)

What did the test return for OC(CC(O)(C(F)(F)Cl)C(F)(F)Cl)c1ccccc1 (centres undefined) ?
no (0)

How was COc1cccc(NCC(=O)Nn2c(-c3ccccc3)nc3ccccc3c2=O)c1 classified in this test?
no (0)

Lab log entry: CC(=O)c1cc2c(Br)cccc2oc1=O — outcome as called in the assay?
no (0)

Tell me the recorded outcome of this test for CCOC(=O)N1C=NC23C(c4ccccc4)C(c4ccccc4)C12C(=O)N(C)C(=O)N3C (centres undefined) .
no (0)

Write down the call the test reported for this compound. Item: COc1nc(C)nc2c1ncn2Cc1ccccc1
no (0)

Check the results log: what was the call for COC(=O)c1cc2c(c(C(=O)OC)c1O)C(=O)C=CC2=O ?
no (0)

What is the recorded call for this compound in the test? Oc1ccc(-c2c3ccccc3c(-c3ccc(OCCBr)cc3)c3ccccc23)cc1
no (0)

Name the outcome recorded for Cc1cc(C)c(-c2no/c(=N\S(=O)(=O)c3ccc(Cl)cc3)o2)c(C)c1 in the assay.
no (0)

Could you please tell me the result logged for O=C(O)CCCC#CCCCC(=O)O in this assay?
no (0)

Any idea what this test logged for CC1C2Cc3ccc(O)cc3C1(C)CCN2C (centres undefined) ?
no (0)

For O=c1[nH]c2ccc(CC(=S)N3CCN(c4ccccc4)CC3)cc2s1 , which call appears in the assay record?
no (0)

Entry COc1ccc(OC2(c3cc(OC)ccc3OC)OC(=O)c3ccccc32)cc1 (centres undefined) : call = ?
no (0)

So what was the verdict on CN1N=C(c2ccccc2)c2cc(Cl)ccc2N=C1N/N=C/c1ccc(N(C)C)cc1 in this test?
no (0)

Can you look up the reported call for CC[S+](C)c1ccc(-c2c3nc(c(-c4ccc([S+](C)CC)cc4)c4ccc([nH]4)c(-c4ccc([S+](C)CC)cc4)c4nc(c(-c5ccc([S+](C)CC)cc5)c5ccc2[nH]5)C=C4)C=C3)cc1.[O-][Cl+3]([O-])([O-])[O-].[O-][Cl+3]([O-])([O-])[O-].[O-][Cl+3]([O-])([O-])[O-].[O-][Cl+3]([O-])([O-])[O-] (centres undefined) for me?
no (0)

Tell me the assay call for Cc1ccc([S+]([O-])C(C)C(Cl)c2ccccc2)cc1 (centres undefined) please.
no (0)
